biological target: cell surface human leukocyte elastase (HLE-CS) on U937 Clone 10 cells (Homo sapiens, UniProt P08246); construct: endogenous in cells; host or cells: human U937 Clone 10 cells; test: Cellular adherence to glass (HLE-CS interaction); format: cell-based; conditions: at optimal concentration; 2,000 U937 cells per well
Sequence (P08246 30-267): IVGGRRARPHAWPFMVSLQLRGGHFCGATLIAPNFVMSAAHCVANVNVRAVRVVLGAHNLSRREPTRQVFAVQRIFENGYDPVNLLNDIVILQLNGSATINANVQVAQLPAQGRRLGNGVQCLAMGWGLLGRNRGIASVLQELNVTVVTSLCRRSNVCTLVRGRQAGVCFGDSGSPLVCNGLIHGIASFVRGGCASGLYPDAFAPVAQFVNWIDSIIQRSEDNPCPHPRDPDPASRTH
measure-name: HLE-CS Adherent cells

a: C[C@H]1[C@H](NC(=O)/C(=N\OC(C)(C)C(=O)O)c2csc(N)n2)C(=O)N1S(=O)(=O)O [Aztreonam]
b: C[C@@H](O)[C@H]1C(=O)N2C(C(=O)O)=C(S[C@@H]3CN[C@H](CNS(N)(=O)=O)C3)[C@H](C)[C@H]12 [Doripenem]
Prompt line: Sorting ascending by HLE-CS Adherent cells, which comes first: a or b ? Field: selected label. Fill in the label of the entry you choose.
Response line: a
(a: 33, b: 52)

----------
target: cell surface human leukocyte elastase (HLE-CS) on U937 Clone 10 cells (Homo sapiens, UniProt P08246); construct: endogenous in cells; host or cells: human U937 Clone 10 cells; assay: Cellular adherence to glass (HLE-CS interaction); type: cell-based; details: at optimal concentration; 2,000 U937 cells per well
measure-name: HLE-CS Adherent cells

CC1=C(C(=O)O)N2C(=O)[C@@H](NC(=O)[C@H](N)c3ccccc3)[C@H]2SC1 [Cephalexin]
27
CC1(C)S[C@@H]2[C@H](NC(=O)COc3ccccc3)C(=O)N2[C@H]1C(=O)O [Pen V, Penicillin V]
30
Cc1onc(-c2c(Cl)cccc2Cl)c1C(=O)N[C@@H]1C(=O)N2[C@@H]1SC(C)(C)[C@@H]2C(=O)O [Dicloxacillin]
26

P: C[C@@H](O)[C@H]1C(=O)N2C(C(=O)O)=C([C@H]3CCCO3)S[C@H]12 [Faropenem]
Q: CO/N=C(\C(=O)N[C@@H]1C(=O)N2C(C(=O)O)=C(COC(N)=O)CS[C@H]12)c1ccco1 [Cefuroxine, Cefuroxime]
Prompt line: Sorting ascending by HLE-CS Adherent cells, which comes first: P or Q ? Field: selected label. Fill in the label of the entry you choose.
Response line: P

----------
biological target: Human leukocyte elastase (HLE-G) (Homo sapiens); construct: purchased Athens Research & Technology 16-14-051200; assay: Inhibition of HLE-G enzymatic activity; format: biochemical; conditions: molar excess of compound to HLE-G at IC50
Sequence (P08246 30-267): as above
measure-name: HLE-G Molar excess

CC1(C)S[C@@H]2[C@H](NC(=O)COc3ccccc3)C(=O)N2[C@H]1C(=O)O [Pen V, Penicillin V]
3.5
Cc1onc(-c2c(Cl)cccc2Cl)c1C(=O)N[C@@H]1C(=O)N2[C@@H]1SC(C)(C)[C@@H]2C(=O)O [Dicloxacillin]
3.1
CO/N=C(\C(=O)N[C@@H]1C(=O)N2C(C(=O)O)=C(COC(N)=O)CS[C@H]12)c1ccco1 [Cefuroxine, Cefuroxime]
2.2
C[C@@H](O)[C@H]1C(=O)N2C(C(=O)O)=C([C@H]3CCCO3)S[C@H]12 [Faropenem]
2.7
C[C@H]1[C@H](NC(=O)/C(=N\OC(C)(C)C(=O)O)c2csc(N)n2)C(=O)N1S(=O)(=O)O [Aztreonam]
3.1

Where do the numbers come from? From paper PMC8220083.
